B1: Hairpin Ribozyme (parent)
chain: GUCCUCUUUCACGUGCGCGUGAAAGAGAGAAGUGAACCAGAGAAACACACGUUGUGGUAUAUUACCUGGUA

Variants of: B1
Assay: self-cleavage, relative activity (ratio to wild type); higher = more cleavage; co-transcriptional
Would you kindly list self-cleavage for each of these variants?
API note: the answer field is a bare number with no unit suffix.

GET /value?item= GUCCUCUUUCACGUGUGCGUGAAAGAGAGAAGUGAACCAGAGAAACACCCGUUGUGGUAUAUUACCUGGUA &field=self-cleavage returns 0.204

GET /value?item= GUCCUCUUUCACGUGCGCGUGAAAGACAGAAGUGAACCAGAGACACACACGUUGUGGUAUAUUACCUGGUA &field=self-cleavage returns 0.0898

GET /value?item= GUCCUCUUUCACGCGCGCGUGAAAGAGUGAAGUGAACCAGAGAAACACACGUUGUGGUAUAUUACCUGGUA &field=self-cleavage returns 0.668

GET /value?item= GUCCUCUUUCACGUGCGCUUGAAAGAGAGAAGUGAACCAGAGACACACACGUUGUGGUAUAUUACCUGGUA &field=self-cleavage returns 0.275

GET /value?item= GUCCUCUUUCACGUGCGCGUGAAAGAGAGAAGUGAACCAGAAAAACACACGUUGUGGUAUAUUACCUGAUA &field=self-cleavage returns 0.112

GET /value?item= GUCCUCUUUGACGUGCGGGUGAAAGAGAGAAGUGAACCAGAGAAACACACGUUGUGGUAUAUUACCUGGUA &field=self-cleavage returns 0.621

GET /value?item= GUCCUCUUUCACGUGCGCGUGUAAGAGAGAAGUGAACGAGAGAAACACACGUUGUGGUAUAUUACCUGGUA &field=self-cleavage returns 0.184

GET /value?item= GUCCUCUUUCACGUCCGCGUGAAAGAGAGAAGUGAACCAGAGAAACACACUUUGUGGUAUAUUACCUGGUA &field=self-cleavage returns 0.91

GET /value?item= GACCUCUUUCACGUGCGCGUGAAAGAGAGCAGUGAACCAGAGAAACACACGUUGUGGUAUAUUACCUGGUA &field=self-cleavage returns 0.162

GET /value?item= GUCCUCUUUCACGUGCGCGUGAAAGAUAGAAGUGAACUAGAGAAACACACGUUGUGGUAUAUUACCUGGUA &field=self-cleavage returns 0.157

GET /value?item= GUCCUCGUUCACGUGCGCGUGAAAGAGAGAAGUGAACCAGAGAAACACACGUUGUGGUAUAUUUCCUGGUA &field=self-cleavage returns 0.143

GET /value?item= GUCCUCUUUCACGUGCGCGUGAAAGAGAGAAGUGAACCAGAGAAACAUACGUUGUGGUAGAUUACCUGGUA &field=self-cleavage returns 0.125

GET /value?item= GUCCUCUUUCACGUGCGCGUGAAAGAGAGAAGUGAACAAGAGAAAAACACGUUGUGGUAUAUUACCUGGUA &field=self-cleavage returns 0.0508

GET /value?item= GUCCUCUAUCACGUGCGCGUGAAAGAGAGAAGUGAACCAGCGAAACACACGUUGUGGUAUAUUACCUGGUA &field=self-cleavage returns 0.82

GET /value?item= GUCCUCUUUCACGUGCGCGUGAAAGAGAGAAGUGAACCAGAGAAACACCCGUUGUGGUAUAUUACCUGGAA &field=self-cleavage returns 0.157

GET /value?item= GUCCUCUUUCACGUGCGCGUGAAAGAGAGAAGUGAACCGGAGAAACAGACGUUGUGGUAUAUUACCUGGUA &field=self-cleavage returns 0.0932

GET /value?item= GUCCUCUUUCACGUGCGCGUGAAAGAGAGGAGUGAACCAGAGAAACACACGUUGUGGUAUAGUACCUGGUA &field=self-cleavage returns 0.112

GET /value?item= GUCCUCUUUCACGUGCACGUGAAAGAGAUAAGUGAACCAGAGAAACACACGUUGUGGUAUAUUACCUGGUA &field=self-cleavage returns 0.113

GET /value?item= GUCCUCUUUCACGUGCGCGUGAAAGAUAGAAUUGAACCAGAGAAACACACGUUGUGGUAUAUUACCUGGUA &field=self-cleavage returns 0.211

GET /value?item= GUCCUCUUUCACGUGCGCGUGAAAGAGAGAAGUGAACCAGAGAAACACACGUUGUCGUAUAUUGCCUGGUA &field=self-cleavage returns 0.148

GET /value?item= GUCCUCUUUCACGUGCGCGUGAAAGAGAGAAGUGAACCAGAGAAACACACGGUGUGGUAUAUUACCUGUUA &field=self-cleavage returns 0.27

GET /value?item= GUCCUCUUUCACGUGCGCGCGAAAGAGACAAGUGAACCAGAGAAACACACGUUGUGGUAUAUUACCUGGUA &field=self-cleavage returns 0.143

GET /value?item= GUCCUCUUUCACGUGCGCGUGAAAGAGAGAAGUGAGCCGGAGAAACACACGUUGUGGUAUAUUACCUGGUA &field=self-cleavage returns 0.513

GET /value?item= GUCCUCGUUCACGUUCGCGUGAAAGAGAGAAGUGAACCAGAGAAACACACGUUGUGGUAUAUUACCUGGUA &field=self-cleavage returns 0.955

GET /value?item= GUCCUCUUUCAUGUGCGCGUGAAAGAGAGAAGUGAAGCAGAGAAACACACGUUGUGGUAUAUUACCUGGUA &field=self-cleavage returns 0.27

GET /value?item= GUCUUCUUUCACGUGCGCGUGAAAGAGAGAAGUGAACCUGAGAAACACACGUUGUGGUAUAUUACCUGGUA &field=self-cleavage returns 0.188

GET /value?item= GUCCUCUUUCACGUGCGCGUGAAAGAGAGAAGUGAACCAGAGAAACACACGUUAUGGUAUACUACCUGGUA &field=self-cleavage returns 0.195

GET /value?item= GUCCUCGUUCACGUGCGCGUGAAAGAGUGAAGUGAACCAGAGAAACACACGUUGUGGUAUAUUACCUGGUA &field=self-cleavage returns 0.498

GET /value?item= GUCCUCUUUCACGUGCGCGUGAAAGAGGGAAGUGAACCAGAGAAACACACGUUGUGGUAUAUGACCUGGUA &field=self-cleavage returns 0.223

GET /value?item= GUCAUCUUUCACGUGCGCGUGAAAGAGAGAUGUGAACCAGAGAAACACACGUUGUGGUAUAUUACCUGGUA &field=self-cleavage returns 0.245

GET /value?item= GUCCUCUGUCACCUGCGCGUGAAAGAGAGAAGUGAACCAGAGAAACACACGUUGUGGUAUAUUACCUGGUA &field=self-cleavage returns 0.519

GET /value?item= GUCUUCUUUCACGUGCGCGUGAAAGAGAGAAGUGAACCAGAGAAACACACGUUGUGGUAUACUACCUGGUA &field=self-cleavage returns 0.16

GET /value?item= GUCCUCUUUCACGUGCGCGUCAAAGAGAGAAGUGAACCAGAGAAACACACGUUGUGGUAUCUUACCUGGUA &field=self-cleavage returns 0.151

GET /value?item= GUCCUCUUUCACGUGCGCGUGAAAGAGAGAAGUGAACCAGCGAAACACACGUUGUGGUCUAUUACCUGGUA &field=self-cleavage returns 0.17

GET /value?item= GUCCUCGUUCACGUGCGCGUGAAAGAGAGAAGUGAACCAGAGAGACACACGUUGUGGUAUAUUACCUGGUA &field=self-cleavage returns 0.16

GET /value?item= GUCCUUUUUCACGUGCGCGUGAAAGAGAGAAGUGAACCAGAGAAACACACGUUGUGGUAUAUUCCCUGGUA &field=self-cleavage returns 0.238

GET /value?item= GUCCUCUUUCACGUGCGCGUGAAAGAGAGAAGUGAACUAGAGAAACACACGUUGUGGUAUAUCACCUGGUA &field=self-cleavage returns 0.128

GET /value?item= GUGCUCUUUCACGUGCGCGUGAAAAAGAGAAGUGAACCAGAGAAACACACGUUGUGGUAUAUUACCUGGUA &field=self-cleavage returns 0.146

GET /value?item= GUCCUCUUUCACGUGCGCGUGAAAGAGAGAAGUGAACCAGAGAAACAUACGUUGUGGUAUUUUACCUGGUA &field=self-cleavage returns 0.151

GET /value?item= GUCCUCUUUCAUGUGCGCGUGAAAGAGAGAAGUGGACCAGAGAAACACACGUUGUGGUAUAUUACCUGGUA &field=self-cleavage returns 0.938

GET /value?item= GUCCUCUUUCCCGUGCGCGUGAAAGAGAGAAGUGGACCAGAGAAACACACGUUGUGGUAUAUUACCUGGUA &field=self-cleavage returns 0.837

GET /value?item= GUCCUCUUUCACGUGCGCGUGAAAGUGAGAAGUGAACCAGACAAACACACGUUGUGGUAUAUUACCUGGUA &field=self-cleavage returns 0.139

GET /value?item= GUCCUCUUUCACGUGCGCGUGAAAGAGCGAAGUGAAUCAGAGAAACACACGUUGUGGUAUAUUACCUGGUA &field=self-cleavage returns 0.396

GET /value?item= AUCCUCUUUCACGUGCGCGUGAAAGAGAGAAGUGAACCAGAAAAACACACGUUGUGGUAUAUUACCUGGUA &field=self-cleavage returns 0.122

GET /value?item= GUCCUCUUUCACGUGCGCGUGAUAGAGAGAAGUGAACUAGAGAAACACACGUUGUGGUAUAUUACCUGGUA &field=self-cleavage returns 0.312

GET /value?item= GUCCUCUUUCACGUGCGCGUGAAAGAGAGAAGUGAAACAGAGAAACACACGUUGUGAUAUAUUACCUGGUA &field=self-cleavage returns 0.145

GET /value?item= GUCCUCUUUCACGUGCGCGUGACAGAGAGAAGUGAACCAGAGAAACACACGUUGUGGUAUAUUACCUGAUA &field=self-cleavage returns 0.379

GET /value?item= GUCCUCUUUCACGUCCGCGUGUAAGAGAGAAGUGAACCAGAGAAACACACGUUGUGGUAUAUUACCUGGUA &field=self-cleavage returns 1.01

GET /value?item= GUCCUCUUUCACGUGCGCGUGCAAGAGAGAAGAGAACCAGAGAAACACACGUUGUGGUAUAUUACCUGGUA &field=self-cleavage returns 0.0448

GET /value?item= GUCCUCUUUCCCGUGCGCGUGAAAGAGAGAAGUGAACCAGGGAAACACACGUUGUGGUAUAUUACCUGGUA &field=self-cleavage returns 0.701

GET /value?item= GUCCUCUAUCACGUGCGCGUGAAAGAGAGAAGUGAACCAGAGAAACAGACGUUGUGGUAUAUUACCUGGUA &field=self-cleavage returns 0.107

GET /value?item= GUCCUCUUUCACGUGCGCGUGAAAGAGAGAAGUUAACCAGAGAAACACACGUUGUGGUAUAGUACCUGGUA &field=self-cleavage returns 0.139

GET /value?item= GUCCUCUCUCACGUGCGCGUGAAAGAGAGAAGUGAACCAGAGAAACGCACGUUGUGGUAUAUUACCUGGUA &field=self-cleavage returns 0.147

GET /value?item= GUCUUCUUUCACGUGCGCGUGAAAGAGAGAAGUGAACCAGAGAAAGACACGUUGUGGUAUAUUACCUGGUA &field=self-cleavage returns 0.121

GET /value?item= GUCCUCUUUCACGUGCGCGUGAAAGAGAGAAGUGAACCAGAGAAACUCAUGUUGUGGUAUAUUACCUGGUA &field=self-cleavage returns 0.171

GET /value?item= GUACUCUUUCACGUGCGCGUGAAAGAGAGAAGUGAACCAGAGAAACACAUGUUGUGGUAUAUUACCUGGUA &field=self-cleavage returns 0.236

GET /value?item= GUCCUCUUUCACGUGCGCGUGAAAGAGGGAAGUGAACCAGAGAAACACACGUUGUGGUAUAUCACCUGGUA &field=self-cleavage returns 0.138

GET /value?item= GUCCUCUUUCACGUGCGCGUGAAAGAGAGAAGUGAACCAGAGAAACACACGUUGUGGAAUAUUGCCUGGUA &field=self-cleavage returns 0.247

GET /value?item= GUCCUCUUUCACGUGCGCGUGAAAGAGAGCAGUGAACCAGAGAAACACACGUUGUGGUAUACUACCUGGUA &field=self-cleavage returns 0.0331

GET /value?item= GUCCUCUUUCACGUGCGCGUGAAAGAGAGAAGUGAACCAGAGAAACACACGUUGUGGUAUAUCACAUGGUA &field=self-cleavage returns 0.23

GET /value?item= GUCCUCUUUCACGUGCGCGUGAAAGAGAGAAGUGAAGGAGAGAAACACACGUUGUGGUAUAUUACCUGGUA &field=self-cleavage returns 0.0384

GET /value?item= GUCCUCUUUUACGUGCGCGUGAAAGACAGAAGUGAACCAGAGAAACACACGUUGUGGUAUAUUACCUGGUA &field=self-cleavage returns 0.0988

GET /value?item= GUUCUCUUUCACGCGCGCGUGAAAGAGAGAAGUGAACCAGAGAAACACACGUUGUGGUAUAUUACCUGGUA &field=self-cleavage returns 0.451

GET /value?item= GUCCUCUUUCACGCGCGCGUGAAAGAGAGAAGUGAACCAGAGAAACACACGUUGUGGUAUAGUACCUGGUA &field=self-cleavage returns 0.218

GET /value?item= GUCCUCUUUGACGUGCGCGUGAAAGAGAGAAGUGAACCAGAGAAACACACGUUGUGGUAUAUUACCUGGCA &field=self-cleavage returns 0.93

GET /value?item= GUCCUCGUUCACGUGCGCGUGAAAGAGAGAAGUGAACCAGAGAAACACACGUUGUGGUAUAUUAACUGGUA &field=self-cleavage returns 0.975

GET /value?item= GUCCUCUUUCACGUGCGCGUGAAAGAGAGAUGUGAACCAGAGAAACACACGUUGUGGUAUAUUACCUAGUA &field=self-cleavage returns 0.157

GET /value?item= GUACUCGUUCACGUGCGCGUGAAAGAGAGAAGUGAACCAGAGAAACACACGUUGUGGUAUAUUACCUGGUA &field=self-cleavage returns 0.703

GET /value?item= GUCCUCUUUCACUUGCGCGUGAAAGAGAGAAGUGAACCAGAGAAACACACGUAGUGGUAUAUUACCUGGUA &field=self-cleavage returns 0.777

GET /value?item= GUCCUCUUUCACGUGCGCGUGAAAGAGAGAUGUGAACCAGAGAAACACACGUUGUGGUAUAGUACCUGGUA &field=self-cleavage returns 0

GET /value?item= GUCCUCUAUCACGUGCGCGUGAAAGAGGGAAGUGAACCAGAGAAACACACGUUGUGGUAUAUUACCUGGUA &field=self-cleavage returns 0.684

GET /value?item= GUCCUCUUUCACGGGCGCGAGAAAGAGAGAAGUGAACCAGAGAAACACACGUUGUGGUAUAUUACCUGGUA &field=self-cleavage returns 0.866
